Target: Recombinant (1-346) HPK1 (h) (Homo sapiens)
Construct: Recombinant (1-346) HPK1 (h) is incubated with 8 mM MOPS pH 7.0
Sequence (Q92918 1-346): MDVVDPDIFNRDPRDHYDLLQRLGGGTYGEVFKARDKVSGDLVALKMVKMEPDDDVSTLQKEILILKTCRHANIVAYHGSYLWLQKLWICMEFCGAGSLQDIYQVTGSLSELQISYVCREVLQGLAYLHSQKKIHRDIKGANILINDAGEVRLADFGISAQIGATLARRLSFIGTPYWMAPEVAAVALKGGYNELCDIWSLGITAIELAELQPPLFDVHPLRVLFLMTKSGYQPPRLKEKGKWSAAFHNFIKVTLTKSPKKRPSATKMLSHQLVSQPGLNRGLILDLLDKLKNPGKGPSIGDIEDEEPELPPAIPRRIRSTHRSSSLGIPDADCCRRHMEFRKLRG
Assay: HPK1 Human STE Kinase Enzymatic Radiometric Assay
Type: biochemical
Settings: read-out: HPK1 IC50 nM Range*
Protocol: A stock solution of 10 mM of test compound is prepared in DMSO. The compound plate was prepared by 3-fold and 9-point serial dilutions. […] The reaction is initiated by The addition of the Mg/ATP mix. After incubation for 40 minutes at RT, the reaction is stopped by the addition of phosphoric acid to a concentration of 0.5%.
endpoint: IC50

### Prompt Please tell me: IC50 of Nc1nc(F)c(-c2ccc(N3CCN(CC4CC4)CC3)cc2)cc1-c1ccc2c(=O)[nH]ccc2c1 , system Recombinant (1-346) HPK1 (h) (Homo sapiens)?
### Response 0.1 to 10 nM

### Prompt Could you do the same for CC(C)N1CCN(c2ccc(-c3ccc(Nc4ccc5c(c4)CCNC5=O)nc3F)cc2)CC1 , please?
### Response > 1000 nM

### Prompt What do you have for CNCC1Cc2cc(-c3cc(-c4ccc(N5CCOCC5)cc4)c(F)nc3N)ccc2C(=O)N1 (centres unmarked) ?
### Response 11 to 100 nM

### Prompt Param item: Cc1nc2cc(-c3cc(-c4ccc(N5CCN(CCC(F)F)CC5)cc4)c(F)nc3N)cc(F)c2c(=O)[nH]1
### Response 11 to 100 nM

### Prompt Another molecule: Nc1nc(F)c(-c2ccc(N3CCOCC3)c(CN3CCOCC3)c2)cc1-c1ccc2c(c1)CCNC2=O
### Response 11 to 100 nM

### Prompt Record: CC(=O)N1CCC(Oc2ccc(-c3cc(-c4ccc5c(c4)CCNC5=O)c(N)nc3F)cc2C#N)CC1
### Response 0.1 to 10 nM

### Prompt Proceed to Nc1nc(F)c(-c2ccc(C3=CCNC3)cc2)cc1-c1ccc2c(c1)CCNC2=O [I-109, 2,2,2-trifluoroacetate]
### Response 0.1 to 10 nM

### Prompt One more molecule: COC1CCN(Cc2cc(-c3cc(-c4cc5c(cc4F)C(=O)NCC5)c(N)nc3F)ccc2N2CCOCC2)C1 (centres unmarked)
### Response 0.1 to 10 nM
